read-out: ABC Transporter (ABCB1), ABCB1 (gene 5243); test: CLD_ABCB1_24hr: CellzDirect (CLD) Gene Expression Assay for ABC Transporter (ABCB1) at 24 hours (AID 2283684)
Results filed as inconclusive are left out. Calls of active or inactive are those of the source. Rule for the calls: active = hit-call score of the fitted dose curve at least 0.9, where 1 is the maximum; inconclusive = response in the unintended direction; inactive = score below 0.9.
Outcomes: t (active), f (inactive)

>  <compound>
CC(C)(c1ccc(O)cc1)c1ccc(O)cc1

>  <class>
f

$$$$
>  <compound>
CCCCC(CC)COC(=O)c1ccccc1C(=O)O (centres undefined)

>  <class>
f

$$$$
>  <compound>
CCNc1nc(N)nc(Cl)n1

>  <class>
f

$$$$
>  <compound>
COCCO

>  <class>
f

$$$$
>  <compound>
CCOC(=O)C(C)Oc1ccc(Oc2cnc3cc(Cl)ccc3n2)cc1 (centres undefined)

>  <class>
f

$$$$
>  <compound>
COc1c(Cl)ccc(Cl)c1C(=O)O

>  <class>
f

$$$$
>  <compound>
CCOC(=O)NCCOc1ccc(Oc2ccccc2)cc1

>  <class>
f

$$$$
>  <compound>
OB(O)O

>  <class>
f

$$$$
>  <compound>
COc1nc(C)nc(NC(=O)NS(=O)(=O)c2ccccc2OCCCl)n1

>  <class>
f

$$$$
>  <compound>
S=C([S-])NCCNC(=S)[S-].[Mn+2]

>  <class>
f

$$$$
>  <compound>
C=CCOC(Cn1ccnc1)c1ccc(Cl)cc1Cl (centres undefined)

>  <class>
f

$$$$
>  <compound>
S=C(S)NCCNC(=S)S.[Mn+2].[S-]C([S-])=NCCN=C([S-])[S-].[Zn+2]

>  <class>
t

$$$$
>  <compound>
CCCOC(=O)c1ccc(C(=O)OCCC)nc1

>  <class>
f

$$$$
>  <compound>
Oc1ccc(C(c2ccc(O)cc2)C(Cl)(Cl)Cl)cc1

>  <class>
f

$$$$

----------
test: CCTE_Mundy_HCI_Cortical_Synap_Neur_Matur_NeuriteLength: CCTE's Synaptogenesis and Neurite Maturation Assay in rat cortical cells for Neurite Length, Mundy Lab (AID 2284214)
The source made the active and inactive calls. The calls were made as follows: active = hit-call score of the fitted dose curve at least 0.9, where 1 is the maximum; inactive = score below 0.9.

>  <molecule>
CC1(C)C(C=C(Cl)Cl)C1C(=O)OCc1cccc(Oc2ccccc2)c1 (configuration not stated)

>  <AC50>
8.65 µM (active)

$$$$
>  <molecule>
CCCN(CCC)C(=O)SCC

>  <AC50>
inactive

$$$$
>  <molecule>
Cc1nn(C)c(Oc2ccccc2)c1C=NOCc1ccc(C(=O)OC(C)(C)C)cc1

>  <AC50>
0.00265 µM (active)

$$$$
>  <molecule>
O=C(O)c1ccccc1

>  <AC50>
inactive

$$$$
>  <molecule>
S=C(S)NCCNC(=S)S.[Mn+2].[S-]C([S-])=NCCN=C([S-])[S-].[Zn+2]

>  <AC50>
inactive

$$$$
>  <molecule>
CSC(=O)c1cccc2nnsc12

>  <AC50>
inactive

$$$$
>  <molecule>
S=C([S-])NCCNC(=S)[S-].[Mn+2]

>  <AC50>
inactive

$$$$

----------
read-out: Thyroid Hormone Responsive (THRSP), THRSP (gene 7069); experiment: LTEA_HepaRG_THRSP: Life Technologies and Expression Analysis (LTEA) Assay for Thyroid Hormone Responsive (THRSP) using HepaRG (AID 2283536); settings: mRNA level, 48 h; actives raise or lower the signal
Calls of active or inactive are those of the source. Rule for the calls: active = hit-call score of the fitted dose curve at least 0.9, where 1 is the maximum; inactive = score below 0.9.
Outcome codes: class 1 (active), class 0 (inactive)

>  <compound>
CCOC(=O)C(C)Oc1ccc(Oc2cnc3cc(Cl)ccc3n2)cc1 (stereo not drawn)

>  <class>
class 0

$$$$
>  <compound>
C#CCOC(=O)[C@@H](C)Oc1ccc(Oc2ncc(Cl)cc2F)cc1

>  <class>
class 0

$$$$
>  <compound>
N#CSCSc1nc2ccccc2s1

>  <class>
class 1

$$$$
>  <compound>
c1ccc(Nc2ccccc2)cc1

>  <class>
class 0

$$$$
>  <compound>
COCCO

>  <class>
class 0

$$$$
>  <compound>
CCOC(=O)COc1cc(-n2ncc(C(F)(F)F)c(C)c2=O)c(F)cc1Cl

>  <class>
class 0

$$$$
>  <compound>
COC(=O)c1ccc(I)cc1S(=O)(=O)NC(=O)Nc1nc(C)nc(OC)n1

>  <class>
class 0

$$$$
>  <compound>
CN(C)C(=O)Nc1ccc(Cl)c(Cl)c1

>  <class>
class 1

$$$$
>  <compound>
CCCOC(=O)c1ccc(C(=O)OCCC)nc1

>  <class>
class 0

$$$$
>  <compound>
COc1c(Cl)ccc(Cl)c1C(=O)O

>  <class>
class 0

$$$$
>  <compound>
CCNc1nc(N)nc(Cl)n1

>  <class>
class 0

$$$$
>  <compound>
C[C@]12C[C@H](O)[C@H]3[C@@H](CCC4=CC(=O)CC[C@@]43C)[C@@H]1CC[C@@H]2C(=O)CO

>  <class>
class 1

$$$$
>  <compound>
S=C([S-])NCCNC(=S)[S-].[Mn+2]

>  <class>
class 1

$$$$

----------
experiment: CEETOX_H295R_MTT_cell_viability: Viability Assessment in the CeeTox HT-H295R MTT Assay (AID 2283718)
The source made the active and inactive calls. How the source made its calls: active means hit-call score of the fitted dose curve at least 0.9, where 1 is the maximum; inactive means score below 0.9.
Outcomes: T for active, F for inactive

>  <compound>
CCCN(CCC)C(=O)SCC

>  <class>
F

$$$$
>  <compound>
C[C@]12C[C@H](O)[C@H]3[C@@H](CCC4=CC(=O)CC[C@@]43C)[C@@H]1CC[C@@H]2C(=O)CO

>  <class>
F

$$$$
>  <compound>
CC(=O)S[C@@H]1CC2=CC(=O)CC[C@]2(C)[C@H]2CC[C@@]3(C)[C@@H](CC[C@@]34CCC(=O)O4)[C@H]12

>  <class>
F

$$$$
>  <compound>
COC(=O)c1ccccc1C(=O)O

>  <class>
F

$$$$
>  <compound>
CCCCC(CC)COC(=O)c1ccccc1C(=O)O (stereo unspecified)

>  <class>
F

$$$$
>  <compound>
S=C([S-])NCCNC(=S)[S-].[Mn+2]

>  <class>
F

$$$$
>  <compound>
CC(C)(c1ccc(O)cc1)c1ccc(O)cc1

>  <class>
F

$$$$
>  <compound>
CCCCOCCOCCOCc1cc2c(cc1CCC)OCO2

>  <class>
F

$$$$
>  <compound>
CC1(C)C(C=C(Cl)Cl)C1C(=O)OCc1cccc(Oc2ccccc2)c1 (stereo unspecified)

>  <class>
F

$$$$
>  <compound>
CCCCOC(=O)[C@@H](C)Oc1ccc(Oc2ccc(C(F)(F)F)cn2)cc1

>  <class>
F

$$$$
>  <compound>
S=C(S)NCCNC(=S)S.[Mn+2].[S-]C([S-])=NCCN=C([S-])[S-].[Zn+2]

>  <class>
T

$$$$
>  <compound>
C#C[C@]1(O)CC[C@H]2[C@@H]3CCC4=CC(=O)CC[C@@H]4[C@H]3CC[C@@]21CC

>  <class>
F

$$$$
>  <compound>
CC(C)(C)[C@@H](O)[C@@H](Cc1ccc(Cl)cc1)n1cncn1

>  <class>
F

$$$$
>  <compound>
CCNc1nc(N)nc(Cl)n1

>  <class>
F

$$$$
>  <compound>
CCOC(=O)c1ccc(O)cc1

>  <class>
F

$$$$
>  <compound>
CCCCC(CC)CN1C(=O)C2C3C=CC(C3)C2C1=O (stereo unspecified)

>  <class>
F

$$$$

----------
Test: ACEA_AR_agonist_AUC_viability: ACEA Biosciences xCELLigence Real-Time Cell Analysis on Androgen Receptor Agonism for Viability (AID 2283775)
Experimental: ACEA_AR_agonist is a cell-based, single-readout assay that uses 22Rv1, a human prostate cancer cell line, with measurements taken at 80 hours after chemical dosing in a 384-well plate, although TO5 and TO6 (mc0.srcf) used a 96-well plate. Differences in plate size can be ignored given data normalization.ACEA_AR_80hr is one of two assay component(s) measured or calculated from the ACEA_AR assay. […]
Inconclusive results are not listed. Activity calls are given as the source filed them. The calls were made as follows: active = hit-call score of the fitted dose curve at least 0.9, where 1 is the maximum; inconclusive = response in the unintended direction; inactive = score below 0.9.
Classes used: Yes for active, No for inactive

>  <compound>
O=C(O)c1ccccc1

>  <class>
No

$$$$
>  <compound>
COc1c(Cl)ccc(Cl)c1C(=O)O

>  <class>
No

$$$$
>  <compound>
CN(C)C(=O)Nc1ccc(Cl)c(Cl)c1

>  <class>
No

$$$$
>  <compound>
CCCCC(CC)CN1C(=O)C2C3C=CC(C3)C2C1=O (stereo unspecified)

>  <class>
Yes

$$$$
>  <compound>
CCCN(CCC)c1c([N+](=O)[O-])cc(C(F)(F)F)c(N)c1[N+](=O)[O-]

>  <class>
Yes

$$$$
>  <compound>
CCCCCCC(C)OC(=O)COc1nc(F)c(Cl)c(N)c1Cl (stereo unspecified)

>  <class>
Yes

$$$$
>  <compound>
CCN(Cc1c(F)cccc1Cl)c1c([N+](=O)[O-])cc(C(F)(F)F)cc1[N+](=O)[O-]

>  <class>
Yes

$$$$
>  <compound>
CCCN(CCC)C(=O)SCC

>  <class>
No

$$$$
>  <compound>
CCCCC(CC)COC(=O)c1ccccc1C(=O)O (stereo unspecified)

>  <class>
No

$$$$
>  <compound>
COC(=O)c1ccccc1C(=O)O

>  <class>
No

$$$$
>  <compound>
Cc1nn(C)c(Oc2ccccc2)c1C=NOCc1ccc(C(=O)OC(C)(C)C)cc1

>  <class>
Yes

$$$$
>  <compound>
CCSC(=O)N(CC(C)C)CC(C)C

>  <class>
No

$$$$
>  <compound>
Oc1ccc(C(c2ccc(O)cc2)C(Cl)(Cl)Cl)cc1

>  <class>
Yes

$$$$
>  <compound>
CCOC(=O)NCCOc1ccc(Oc2ccccc2)cc1

>  <class>
Yes

$$$$
>  <compound>
CCCCOCCOCCOCc1cc2c(cc1CCC)OCO2

>  <class>
Yes

$$$$
>  <compound>
CC(C)(c1ccc(O)cc1)c1ccc(O)cc1

>  <class>
Yes

$$$$
>  <compound>
CCCOC(=O)NCCCN(C)C

>  <class>
No

$$$$
>  <compound>
COC(=O)c1ccc(I)cc1S(=O)(=O)NC(=O)Nc1nc(C)nc(OC)n1

>  <class>
No

$$$$
>  <compound>
CC(C)CCCCCCc1ccc(O)cc1

>  <class>
Yes

$$$$
>  <compound>
COC(=O)CSc1cc(N=c2sc(=O)n3n2CCCC3)c(F)cc1Cl

>  <class>
No

$$$$
>  <compound>
CC(=O)[C@H]1CC[C@H]2[C@@H]3CCC4=CC(=O)CC[C@]4(C)[C@H]3CC[C@]12C

>  <class>
No

$$$$
